Each entry below carries its recorded pIC50.
subject.of.test: CyclinE1/CDK2 (Homo sapiens)
Construct: purchased Eurofins, discovery 14-475
experimental.details: Fluorescence Polarization (FP) competitive binding assay, Cyclin E1/Cdk2;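 further: readings taken after two-hour equilibration at room temperature in HEPES buffer with NaCl, DTT, NP-40 and BSA, IC50 fitted from eight-concentration serial dilution series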
particulars: 10 nM Cyclin E1/Cdk2, 2 nM FAM probe; average of 2-3 independent experiments; read-out: Cyclin E FP IC50
*1 amine or outer side, *2 acyl side, *3 side chain or, on linkers, in order; H or OH if unused. Where a SMILES comes first, the peptide text is derived from it. Bridges are numbered along the chain shown (N, C = ends). [ ]: non-standard residue; d: D form. The star is where a group is joined. X68 = CN([C@@H](Cc1cc(Cl)ccc1-c1cnn(C2CC2)c1)C(=O)[*:2])[*:1]; NMehhhLys(Me) = CN([C@@H](CCCCCCCN(C)[*:3])C(=O)[*:2])[*:1]; NMe(hhhLys) = CN([C@@H](CCCCCCCN[*:3])C(=O)[*:2])[*:1]; X132 = CN([C@@H](Cc1cc(Cl)cc2ccoc12)C(=O)[*:2])[*:1]; cBuCO(3,3-F2-1-CF3) = O=C(C1(C(F)(F)F)CC(F)(F)C1)*; Pro(trans-4-F) = O=C(O)[C@@H]1C[C@@H](F)CN1; Gly(cPr) = N[C@H](C(=O)O)C1CC1
Please treat pIC50 as minus the base-10 logarithm of the molar concentration.

Field: example entries. Status: answers known.
CC(C)C[C@@H]1NC(=O)[C@@H](N(C)C(=O)[C@@H](NC(=O)[C@@H]2C[C@@H](F)CN2C(=O)C2(C(F)(F)F)CC(F)(F)C2)C2CC2)CCCCCCCNC(=O)[C@H](Cc2cc(Cl)ccc2-c2cnn(C3CC3)c2)N(C)C1=O [Example 67] ({cBuCO(3,3-F2-1-CF3)}-[Pro(trans-4-F)][Gly(cPr)][NMe(hhhLys)]L[X68]; lactam 3-C): 6.30
CC(C)C[C@@H]1NC(=O)[C@@H](N(C)C(=O)[C@@H](NC(=O)[C@@H]2C[C@@H](F)CN2C(=O)C2(C(F)(F)F)CCC2)C2CC2)CC=CCCCCNC(=O)[C@H](Cc2cc(Cl)cnc2OC(C)C)N(C)C1=O (single isomer, unassigned) [Example 136-P1]: 6.49

Now turn to the next molecule.
Ask: Report pIC50 for CC(C)C[C@@H]1NC(=O)[C@@H](N(C)C(=O)[C@@H](NC(=O)[C@@H]2C[C@@H](F)CN2C(=O)C2(C(F)(F)F)CC(F)(F)C2)C2CC2)CCCCCCCN(C)C(=O)[C@H](Cc2cc(Cl)cc3ccoc23)N(C)C1=O [Example 394] ({cBuCO(3,3-F2-1-CF3)}-[Pro(trans-4-F)][Gly(cPr)][NMehhhLys(Me)]L[X132]; lactam 3-C) please.
Reply: 6.30

----------
Tested on: NCI-H1048 cells
experimental.details: MTT proliferation assay, NCI-H1048;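 further: Dose-response in 96-well plates over 8 or 10 concentration points, with exposure spanning 3-4 cell doublings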
Assay type: cell-based
particulars: 5 days compound exposure, 1:3 serial dilution starting at 10 μM
*1 amine or outer side, *2 acyl side, *3 side chain or, on linkers, in order; H or OH if unused. Where a SMILES comes first, the peptide text is derived from it. Bridges are numbered along the chain shown (N, C = ends). [ ]: non-standard residue; d: D form. The star is where a group is joined. X8 = CN1CCN(C2CC=C(c3ccc(Cl)cc3C[C@@H](C(=O)[*:2])N(C)[*:1])CC2)CC1; X195 = CC(=O)Nc1ccc(-c2ccc(Cl)cc2C[C@@H](C(=O)[*:2])N(C)[*:1])cn1; X86 = CN([C@@H](Cc1cc(Cl)ccc1-c1cnn(C2CCOCC2)c1)C(=O)[*:2])[*:1]; X193 = CN([C@@H](Cc1cc(Cl)ccc1-c1cnc2nonc2c1)C(=O)[*:2])[*:1]; X68 = CN([C@@H](Cc1cc(Cl)ccc1-c1cnn(C2CC2)c1)C(=O)[*:2])[*:1]; X162 = COc1cncc(-c2ccc(Cl)cc2C[C@@H](C(=O)[*:2])N(C)[*:1])c1; NMehhhLys(Me) = CN([C@@H](CCCCCCCN(C)[*:3])C(=O)[*:2])[*:1]; NMe3Pal(2-OiPr,5-Cl) = CN[C@@H](Cc1cc(Cl)cnc1OC(C)C)C(=O)O; NMe(hhhLys) = CN([C@@H](CCCCCCCN[*:3])C(=O)[*:2])[*:1]; NMe3Pal(2-OMe,5-Cl) = CN[C@@H](Cc1cc(Cl)cnc1OC)C(=O)O; X33 = CN([C@@H](Cc1cc(Cl)cc2c1OCCO2)C(=O)[*:2])[*:1]; cBuCO(3,3-F2-1-CF3) = O=C(C1(C(F)(F)F)CC(F)(F)C1)*; Pro(trans-4-F) = O=C(O)[C@@H]1C[C@@H](F)CN1; Gly(cPr) = N[C@H](C(=O)O)C1CC1
Each entry below carries its recorded log10 of GI50.
Recorded GI50 (log10, nM)

Ask: Please provide the recorded log10 of GI50 for CC(C)C[C@@H]1NC(=O)[C@@H](N(C)C(=O)[C@@H](NC(=O)[C@@H]2C[C@@H](F)CN2C(=O)C2(C(F)(F)F)CC(F)(F)C2)C2CC2)CCCCCCCNC(=O)[C@H](Cc2cc(Cl)ccc2-c2cnn(C3CC3)c2)N(C)C1=O [Example 67] ({cBuCO(3,3-F2-1-CF3)}-[Pro(trans-4-F)][Gly(cPr)][NMe(hhhLys)]L[X68]; lactam 3-C) , tested on NCI-H1048 cells.
Reply: 1.00

Ask: Now try CC(C)C[C@@H]1NC(=O)[C@@H](N(C)C(=O)[C@@H](NC(=O)[C@@H]2C[C@@H](F)CN2C(=O)C2(C(F)(F)F)CC(F)(F)C2)C2CC2)CCCCCCCN(C)C(=O)[C@H](Cc2cc(Cl)ccc2-c2cnn(C3CCOCC3)c2)N(C)C1=O [Example 114] ({cBuCO(3,3-F2-1-CF3)}-[Pro(trans-4-F)][Gly(cPr)][NMehhhLys(Me)]L[X86]; lactam 3-C) .
Reply: 1.00

Ask: Now try CC(C)C[C@@H]1NC(=O)[C@@H](N(C)C(=O)[C@@H](NC(=O)[C@@H]2C[C@@H](F)CN2C(=O)C2(C(F)(F)F)CC(F)(F)C2)C2CC2)CCCCCCCN(C)C(=O)[C@H](Cc2cc(Cl)ccc2-c2cnc3nonc3c2)N(C)C1=O [Example 171] ({cBuCO(3,3-F2-1-CF3)}-[Pro(trans-4-F)][Gly(cPr)][NMehhhLys(Me)]L[X193]; lactam 3-C) .
Reply: 2.18

Ask: Now try CC(C)C[C@@H]1NC(=O)[C@@H](N(C)C(=O)[C@@H](NC(=O)[C@@H]2C[C@@H](F)CN2C(=O)C2(C(F)(F)F)CC(F)(F)C2)C2CC2)CCCCCCCN(C)C(=O)[C@H](Cc2cc(Cl)ccc2C2=CCC(N3CCN(C)CC3)CC2)N(C)C1=O (stereo partly drawn) [Example 376] ({cBuCO(3,3-F2-1-CF3)}-[Pro(trans-4-F)][Gly(cPr)][NMehhhLys(Me)]L[X8]; lactam 3-C) .
Reply: 1.00

Ask: Now try CC(=O)N1CC=C(c2ccc(Cl)cc2C[C@H]2C(=O)N(C)CCCCC=CC[C@H](N(C)C(=O)[C@@H](NC(=O)[C@@H]3C[C@@H](F)CN3C(=O)C3(C(F)(F)F)CC(F)(F)C3)C3CC3)C(=O)N[C@@H](CC(C)C)C(=O)N2C)CC1 .
Reply: 1.90

Ask: Now try COc1cncc(-c2ccc(Cl)cc2C[C@H]2C(=O)N(C)CCCCCCC[C@H](N(C)C(=O)[C@@H](NC(=O)[C@@H]3C[C@@H](F)CN3C(=O)C3(C(F)(F)F)CC(F)(F)C3)C3CC3)C(=O)N[C@@H](CC(C)C)C(=O)N2C)c1 [Example 199] ({cBuCO(3,3-F2-1-CF3)}-[Pro(trans-4-F)][Gly(cPr)][NMehhhLys(Me)]L[X162]; lactam 3-C) .
Reply: 1.48

Ask: Now try CC(=O)Nc1ccc(-c2ccc(Cl)cc2C[C@H]2C(=O)N(C)CCCCCCC[C@H](N(C)C(=O)[C@@H](NC(=O)[C@@H]3C[C@@H](F)CN3C(=O)C3(C(F)(F)F)CC(F)(F)C3)C3CC3)C(=O)N[C@@H](CC(C)C)C(=O)N2C)cn1 [Example 265] ({cBuCO(3,3-F2-1-CF3)}-[Pro(trans-4-F)][Gly(cPr)][NMehhhLys(Me)]L[X195]; lactam 3-C) .
Reply: 1.00

Ask: Now try CC(C)C[C@@H]1NC(=O)[C@@H](N(C)C(=O)[C@@H](NC(=O)[C@@H]2C[C@@H](F)CN2C(=O)C2(C(F)(F)F)CCC2)C2CC2)CC=CCCCCNC(=O)[C@H](Cc2cc(Cl)ccc2Oc2ncccn2)N(C)C1=O (single isomer, unassigned) [Example 156-P2] .
Reply: 1.95

Ask: Now try CC(C)C[C@@H]1NC(=O)[C@@H](N(C)C(=O)[C@@H](NC(=O)[C@@H]2C[C@@H](F)CN2C(=O)C2(C(F)(F)F)CC(F)(F)C2)C2CC2)CCCCCCCNC(=O)[C@H](Cc2cc(Cl)cnc2OC(C)C)N(C)C1=O [Example 131] ({cBuCO(3,3-F2-1-CF3)}-[Pro(trans-4-F)][Gly(cPr)][NMe(hhhLys)]L[NMe3Pal(2-OiPr,5-Cl)]; lactam 3-C) .
Reply: 2.46

Ask: Now try COc1ncc(Cl)cc1C[C@H]1C(=O)N(C)CCCCCCC[C@H](N(C)C(=O)[C@@H](NC(=O)[C@@H]2C[C@@H](F)CN2C(=O)C2(C(F)(F)F)CC(F)(F)C2)C2CC2)C(=O)N[C@@H](CC(C)C)C(=O)N1C [Example 222] ({cBuCO(3,3-F2-1-CF3)}-[Pro(trans-4-F)][Gly(cPr)][NMehhhLys(Me)]L[NMe3Pal(2-OMe,5-Cl)]; lactam 3-C) .
Reply: 1.00

Ask: Now try CC(C)C[C@@H]1NC(=O)[C@@H](N(C)C(=O)[C@@H](NC(=O)[C@@H]2C[C@@H](F)CN2C(=O)C2(C(F)(F)F)CC(F)(F)C2)C2CC2)CCCCCCCN(C)C(=O)[C@H](Cc2cc(Cl)cc3c2OCCO3)N(C)C1=O [Example 321] ({cBuCO(3,3-F2-1-CF3)}-[Pro(trans-4-F)][Gly(cPr)][NMehhhLys(Me)]L[X33]; lactam 3-C) .
Reply: 1.00

Ask: Now try CCN(C(=O)[C@@H](NC(=O)[C@@H]1C[C@@H](F)CN1C(=O)C1(C(F)(F)F)CCC1)C1CC1)[C@H]1CCCCCCCN(C)C(=O)[C@H](Cc2cc(Cl)cnc2OC2CC2)N(C)C(=O)[C@H](CC(C)C)NC1=O .
Reply: 1.48
